This collection of values is drawn from paper PMC7854593.

Target: CMD1 (UniProt A0A2K3D5Z7 1-532)
Sequence (A0A2K3D5Z7 whole entry): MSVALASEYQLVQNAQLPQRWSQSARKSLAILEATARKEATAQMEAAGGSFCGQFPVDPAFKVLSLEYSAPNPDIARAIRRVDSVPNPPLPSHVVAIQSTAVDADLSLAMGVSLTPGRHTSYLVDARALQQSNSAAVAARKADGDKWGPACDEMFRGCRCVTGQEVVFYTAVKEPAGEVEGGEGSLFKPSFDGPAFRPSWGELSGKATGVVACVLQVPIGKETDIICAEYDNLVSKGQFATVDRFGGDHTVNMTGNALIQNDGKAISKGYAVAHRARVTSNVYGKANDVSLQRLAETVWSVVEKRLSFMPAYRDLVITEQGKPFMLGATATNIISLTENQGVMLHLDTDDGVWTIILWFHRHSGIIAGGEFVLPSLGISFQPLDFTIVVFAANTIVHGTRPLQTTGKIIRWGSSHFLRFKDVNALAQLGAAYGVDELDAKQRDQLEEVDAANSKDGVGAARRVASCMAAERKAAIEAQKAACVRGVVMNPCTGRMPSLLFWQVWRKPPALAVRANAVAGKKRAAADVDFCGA
Experiment: BLI; range over dsDNA5-6; BLI: 20 mM Tris-HCl pH 8.0, 50 mM NaCl, 0.1% Tween-20, 0.5% BSA, 25 C; biotin-DNA on streptavidin sensors, 1:1 fit
Details: protein: recombinant; tags: His6-SUMO, cleaved with ULP1; label: 5'-biotin
pKd: −log10 of the molar value.
Assay Readout: pKd

>  <Binder>
dsDNA5 (40 bp, 5mC) (dsDNA, one or two 5mC) DNA 1: GCTTTAACTTACATAAATGCCAATATAGTATGCGTATTGC DNA 2: GCAATACGCATACTATATTGGCATTTATGTAAGTTAAAGC

>  <Assay Readout>
pKd

>  <Experimental Value>
~5.62

$$$$

Determine from records and report pKd for dsDNA6 (40 bp, 5mC) (dsDNA, one or two 5mC) DNA 1: GCTTTAACTTACATAAATGCCAATATAGTATGCGTATTGC DNA 2: GCAATACGCATACTATATTGGCATTTATGTAAGTTAAAGC
~5.62
